Data origin, for the record: patent US7868026B2

# system_under_test: CYP3A4 (Homo sapiens, UniProt P08684)
# Sequence (P08684 whole entry): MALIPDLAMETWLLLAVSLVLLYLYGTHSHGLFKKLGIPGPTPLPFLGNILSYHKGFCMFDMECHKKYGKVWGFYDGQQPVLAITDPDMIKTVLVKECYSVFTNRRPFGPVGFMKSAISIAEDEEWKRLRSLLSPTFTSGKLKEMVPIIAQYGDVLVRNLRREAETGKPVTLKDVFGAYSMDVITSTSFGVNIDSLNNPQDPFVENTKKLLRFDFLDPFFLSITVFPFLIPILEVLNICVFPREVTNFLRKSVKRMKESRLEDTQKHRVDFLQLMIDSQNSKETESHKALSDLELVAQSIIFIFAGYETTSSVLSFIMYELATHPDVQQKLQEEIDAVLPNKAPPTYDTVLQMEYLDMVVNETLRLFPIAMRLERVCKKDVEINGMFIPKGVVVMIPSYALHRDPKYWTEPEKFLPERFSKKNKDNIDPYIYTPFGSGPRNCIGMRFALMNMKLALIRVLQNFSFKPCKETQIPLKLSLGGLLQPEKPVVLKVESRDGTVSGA
# measurement_protocol: Determination of compound Kiapp against recombinant CYP3A4 enzyme (BFC fluorescent substrate)
# Format: biochemical
# condition_info: Baculo. enzyme preparation, read-out: Kiapp (BFC, Baculo.)
measured_property: Ki (nM)

COCCN(C(=O)c1ccccc1S(=O)(=O)Nc1cnccc1OC)C(C)C [Example 127]	694
Cc1cncc(NS(=O)(=O)c2ccccc2C(=O)NCc2ccc(C#N)cc2Cl)c1 [Example 91]	58
COc1ccccc1CNC(=O)c1ccccc1S(=O)(=O)Nc1cccnc1 [Example 90]	313
COc1cncc(NS(=O)(=O)c2ccccc2C(=O)N(Cc2nccn2C)C(C)C)c1 [Example 97]	421
CCCCCN(C)C(=O)c1ccccc1S(=O)(=O)Nc1cnccc1OC [Example 278]	131
CCCCNC(=O)c1ccccc1S(=O)(=O)Nc1cncc(OC)c1 [Example 17]	133

1 = Nc1cncc(NS(=O)(=O)c2ccccc2C(=O)NCc2ccc(F)c(F)c2)c1 [Example 117]
2 = Cc1cncc(NS(=O)(=O)c2ccccc2C(=O)NCC2CCCC2)c1 [Example 334]
Of 1 versus 2 , which is the one with smaller reported Ki? Kindly state the label of the option you pick. 2

I = CC1CCN(C(=O)c2ccccc2S(=O)(=O)N(C)c2cccnc2)CC1 [Example 356]
II = COc1cncc(NS(=O)(=O)c2ccccc2C(=O)NCC(C)(C)C)c1 [Example 380]
III = COc1cncc(NS(=O)(=O)c2ccccc2C(=O)NCCCc2ccccc2)c1 [Example 235]
Form: Sort by [Ki] Order [ ascending ] // rank by listing labels in the order requested III, II, I

A = COc1cncc(NS(=O)(=O)c2ccccc2C(=O)NCc2ccc(Cl)c(Cl)c2)c1 [Example 314]
B = COc1cncc(NS(=O)(=O)c2ccccc2C(=O)NCCc2ccccc2OC)c1 [Example 263]
Of A versus B , which is the one with smaller reported Ki? Kindly state the label of the option you pick. A
(A: 18.7 nM, B: 54.7 nM)
